- Tested on: A673/TR/shEF
- test details: cell viability (LOESS-normalised, relative to median of negative controls) (log2 ratio); higher = more viable cells (less compound effect), active = hit call of the paper (over 3 MAD below the median)
- experimental conditions: 2.5 µM; library screen: screen1; EWS-FLI1 expression: high (no doxycycline); treatment time: 72 h
The whole screen tested about 3,200 compounds, of which about 300 (9.4%) showed activity. The list comes from a sample in which actives are over-represented; it also holds close analogues and randomly drawn compounds.
Measured cell viability (log2) of individual entries
No unit in the answer, please; the number alone is enough.

Take a look at these entries with their results.
CCN1CCCC(OC(=O)C(c2ccccc2)c2ccccc2)C1 (centres undefined)	0.223
OC[C@@H](O)[C@@H](O[C@@H]1O[C@H](CO)[C@@H](O)[C@H](O)[C@H]1O)[C@H](O)[C@@H](O)CO	0.143
c1coc(CN2CCN(Cc3ccc4ccccc4c3)CC2)c1	0.142
CCOc1ccc(C(=O)Nc2ccc(NC(=O)CC)cc2)cc1Cl	0.0812
CN=C(N)NCCCC(N)C(=O)O (centres undefined)	-0.0207

Indicate the recorded cell viability (log2) value for this compound: "C[C@H]1CC[C@@H](C(C)(C)O)CC2=C1CC[C@@H]2C"
0.0212

Indicate the recorded cell viability (log2) value for this compound: "COc1cc(O)c2c(=O)c(-c3ccc(O)cc3)coc2c1"
0.131

Indicate the recorded cell viability (log2) value for this compound: C[C@]12CCC3c4ccc(OC(=O)CCC(=O)O)cc4CCC3C1CCC2=O (some centres undefined)
0.102

* * *

- System: A673/TR/shEF
- test details: cell viability (LOESS-normalised, relative to median of negative controls) (log2 ratio); higher = more viable cells (less compound effect), active = hit call of the paper (over 3 MAD below the median)
- experimental conditions: 0.25 µM; library screen: screen1; EWS-FLI1 expression: low (doxycycline-induced shRNA knockdown); treatment time: 72 h
Out of some 3,200 compounds screened, about 300 (9.4%) showed activity. This excerpt belongs to a sample that is enriched for actives.
measured endpoint: cell viability (log2)
No unit in the answer, please; the number alone is enough.

Take a look at these entries with their results.
CC(C)c1c(O)ccc2c1CC[C@H]1[C@@](C)(CO)CCC[C@]21C	0.204
C/C=C/CC(C)C(O)C1C(=O)NC(CC)C(=O)N(C)CC(=O)N(C)C(CC(C)C)C(=O)NC(C(C)C)C(=O)N(C)C(CC(C)C)C(=O)NC(C)C(=O)NC(C)C(=O)N(C)C(CC(C)C)C(=O)N(C)C(CC(C)C)C(=O)N(C)C(C(C)C)C(=O)N1C (stereo unspecified)	0.0415
CCCCOc1ccc(CC(=O)NO)cc1	0.0519
CN(C)CCC=C1c2ccccc2C=Cc2ccccc21	0.0615
CCCOc1ccc2nc(NC(=O)OC)[nH]c2c1	0.106

Indicate the recorded cell viability (log2) value for this compound: "CCOc1cc(/C=C2\SC(=S)N(CCS(=O)(=O)O)C2=O)ccc1O"
0.0852

Indicate the recorded cell viability (log2) value for this compound: "CC(C)N1C(=O)C(=Cc2cccs2)SC1=S"
0.0522

Indicate the recorded cell viability (log2) value for this compound: "NC(=O)NC(=O)Cc1ccccc1"
0.215

Indicate the recorded cell viability (log2) value for this compound: "CN(C)CCC=C1c2ccccc2CCc2ccccc21"
0.086

Indicate the recorded cell viability (log2) value for this compound: "O=C1CSC(=O)N1CCN1C(=O)SC(=Cc2ccc(O)cc2)C1=O"
0.0957

Indicate the recorded cell viability (log2) value for this compound: CC1=C(C(=O)Nc2ccccc2Cl)C(c2ccccc2Cl)NC(=S)N1 (stereo unspecified)
0.0233

Indicate the recorded cell viability (log2) value for this compound: CC(=O)OCC(OC(C)=O)C(OC(C)=O)C(OC(C)=O)C(OC(C)=O)C(COC(C)=O)OC(C)=O (stereo unspecified)
0.086

Indicate the recorded cell viability (log2) value for this compound: "NNCCc1ccccc1"
0.11

Indicate the recorded cell viability (log2) value for this compound: "COc1ccccc1/C=C/c1nc(O)c([N+](=O)[O-])c(=O)[nH]1"
0.138

Indicate the recorded cell viability (log2) value for this compound: "CCCSc1ccc2nc(NC(=O)OC)[nH]c2c1"
-0.0499

Indicate the recorded cell viability (log2) value for this compound: "Cn1cnnc1SCC(=O)N1c2ccccc2CCc2ccccc21"
0.0627

* * *

- Test system: A673/TR/shEF
- test details: cell viability (LOESS-normalised, relative to median of negative controls) (log2 ratio); higher = more viable cells (less compound effect), active = hit call of the paper (over 3 MAD below the median)
- experimental conditions: 0.25 µM; library screen: screen2; EWS-FLI1 expression: high (no doxycycline); treatment time: 72 h
About 300 (9.4%) of roughly 3,200 compounds showed activity. What follows is part of a selection rich in actives, with near analogues and random picks from the rest.
Measured cell viability (log2) of individual entries

Take a look at these entries with their results.
CC(=O)O[C@H]1C(=O)[C@@]2(C)[C@H]([C@H](OC(=O)c3ccccc3)[C@]3(O)C[C@H](OC(=O)[C@H](O)[C@@H](NC(=O)c4ccccc4)c4ccccc4)C(C)=C1C3(C)C)[C@]1(OC(C)=O)CO[C@@H]1C[C@@H]2O	-2.49 (active)
CCCCCCCCCCCCC/C=C/[C@@H](O)[C@@H](N)CO	0.0615 (inactive)
O=c1cc(N2CCOCC2)oc2c(-c3ccccc3)cccc12	0.135 (inactive)
NC(N)=NCCSSCCN=C(N)N	0.208 (inactive)
COc1cccc2c1C(=O)c1c(O)c3c(c(O)c1C2=O)C[C@@](O)(C(C)=O)C[C@@H]3O[C@H]1C[C@H](N)[C@H](O)[C@H](C)O1	-1.6 (active)

Turning now to a further record.
Indicate the recorded cell viability (log2) value for this compound: "O=C(O)c1cc2cc(F)ccc2[nH]1"
-0.173 (active)

* * *

- System: A673/TR/shEF
- test details: cell viability (LOESS-normalised, relative to median of negative controls) (log2 ratio); higher = more viable cells (less compound effect), active = hit call of the paper (over 3 MAD below the median)
- experimental conditions: 0.25 µM; library screen: screen1; EWS-FLI1 expression: low (doxycycline-induced shRNA knockdown); treatment time: 72 h
The whole screen tested about 3,200 compounds, of which about 300 (9.4%) showed activity. This excerpt belongs to a sample that is enriched for actives.
Measured cell viability (log2) of individual entries
No unit in the answer, please; the number alone is enough.

Take a look at these entries with their results.
CC(C)c1c(O)c(-c2cc3c(c(C(C)C)c2O)CCC2C(C)(C)CCCC32C)cc2c1CCC1C(C)(C)CCCC21C (centres undefined)	0.109
CC(=O)Oc1cc(C)c2c(c1C(OC(C)=O)OC(C)=O)Oc1c(c(C)c(OC(C)=O)c3c1C(OC(C)=O)OC3=O)OC2=O (centres undefined)	0.0968
C=CC1=C(C)/C(=C/c2[nH]c(Cc3[nH]c(/C=C4\NC(=O)C(C)=C4C=C)c(C)c3CCC(=O)O)c(CCC(=O)O)c2C)NC1=O	0.0277
C=C(C)C1Cc2c(cc3oc(CO)cc(=O)c3c2O)O1 (centres undefined)	-0.012
C=C1CCC2C(CC2(C)C)C(=C)CCC1=NO (centres undefined)	0.00367
O=C(O)c1ccc2c(c1)OCO2	0.102
CC(=O)O[C@H]1CC[C@@]2(C)[C@@H](CC[C@@H]3[C@@H]2CC[C@]2(C)[C@@H]4[C@H](C[C@@H]32)O[C@]2(CC[C@@H](C)CO2)[C@H]4C)C1	0.0708
CCN1C(=O)/C(=C\c2cn(CCC#N)nc2-c2ccc(F)cc2)SC1=S	0.118
CN(C)CCCN1c2ccccc2Sc2ccccc21	0.0795
COc1cc(C)c2c(=O)c3c(O)cc(O)cc3oc2c1	0.0363

Turning now to a further record.
Indicate the recorded cell viability (log2) value for this molecule: "COc1c(Cl)ccc(Cl)c1C(=O)O"
0.128

* * *

- Tested on: A673/TR/shEF
- test details: cell viability (LOESS-normalised, relative to median of negative controls) (log2 ratio); higher = more viable cells (less compound effect), active = hit call of the paper (over 3 MAD below the median)
- experimental conditions: 0.25 µM; library screen: screen2; EWS-FLI1 expression: high (no doxycycline); treatment time: 72 h
Out of some 3,200 compounds screened, about 300 (9.4%) showed activity. Only a selection was taken, and actives are over-represented in it overall.
Measured cell viability (log2) of individual entries
No unit in the answer, please; the number alone is enough.

Take a look at these entries with their results.
CC[C@H](C)C(=O)O[C@H]1CCC=C2C=C[C@H](C)[C@H](CC[C@@H]3C[C@@H](O)CC(=O)O3)[C@H]21	0.167
Nc1ncnc2c1ncn2C1CCCO1 (stereo not drawn)	-0.183
C[N+](C)(C)CCOP(=O)([O-])OP(=O)(O)OC[C@H]1O[C@@H](n2ccc(N)nc2=O)[C@H](O)[C@@H]1O	0.0983
N#C/C(=C\c1ccc(O)c(O)c1)C(=O)NCCCNC(=O)/C(C#N)=C/c1ccc(O)c(O)c1	0.153
OC1C=CC(Br)C(O)C1O (stereo not drawn)	0.12

Indicate the recorded cell viability (log2) value for this molecule: "Nc1ncnc2c1ncn2[C@@H]1O[C@H](CO)[C@@H](O)[C@H]1O"
-0.195

Indicate the recorded cell viability (log2) value for this molecule: "CN(C)c1ccc(O)c2c1C[C@H]1C[C@H]3[C@H](N(C)C)C(=O)C(C(N)=O)=C(O)[C@@]3(O)C(=O)C1=C2O"
0.0664
